System: Septoria tritici
Assay: Test G: wheat leaf blotch on wheat seedlings, sprayed the day before inoculation, visual disease rating
Format: in vivo
Conditions: 40 ppm (marked *); 100 = 100% disease control, 0 = no control
Marks after values point to notes of the source that are not given here.

{"sampleSmiles": "Cn1c(-c2cnc(Cl)n2-c2ccc(Cl)cc2)nc(Cl)c1Br", "Test G disease control rating": "28* %"}
{"sampleSmiles": "COc1cc(F)c(-n2c(Cl)nc(CCl)c2-c2ccc(Cl)cc2)c(F)c1", "Test G disease control rating": "94* %"}
{"sampleSmiles": "Cc1nc(C)n(-c2ccc(Cl)cc2)c1-c1c(F)cccc1F", "Test G disease control rating": "99* %"}
